biological target: T1, human IGF-IR (Homo sapiens, UniProt P08069); experiment: Surface plasmon resonance (BIAcore) binding kinetics and affinity on immobilized IGF-IR; details: Table 4, optimized 218C04 clones
T1 construct: The extracellular domain of human IGF-IR (aa 1-932) was cloned into a mammalian expression vector; made in house
ATTRIBUTE_MEASURED: ka

Examples from the recorded data:
[
  {
    "MOLECULE": "338A05 (protein) VSDVPRDLEVVAATPTSLLISWSDSLKVSRYYRITYGETGGNSPVQEFTVPKQYHTATISGLKPGVDYTITVYAVTPSNIIGRHYGPISINYRTHHHHHH",
    "ka": "1.3 1/M*s × 10^+6"
  },
  {
    "MOLECULE": "339A01 (protein) VSDVPRDLEVVAATPTSLLISWSTALKVQRYYRITYGETGGNSPVQEFTVPKHSHTATISGLKPGVDYTITVYAVTKMRDYRPISINYRTHHHHHH",
    "ka": "1.2 1/M*s × 10^+6"
  },
  {
    "MOLECULE": "354A10 (protein) VSDVPRDLEVVAATPTSLLISWSNRLVVKRYYRITYGETGGNSPVQEFTVPHQMKTATISGLKPGVDYTITVYAVTPGGYSGRNYGPISINYRTHHHHHH",
    "ka": "1.1 1/M*s × 10^+6"
  },
  {
    "MOLECULE": "338A06 (protein) VSDVPRDLEVVAATPTSLLISWSARLKVARYYRITYGETGGNSPVQEFTVPKNVYTATISGLKPGVDYTITVYAVTKMRDYRPISINYRT",
    "ka": "2.2 1/M*s × 10^+6"
  },
  {
    "MOLECULE": "353H09 (protein) VSDVPRDLEVVAATPTSLLISWSDKLKVQRYYRITYGETGGNSPVQEFTVPKHDRTATISGLKPGVDYTITVYAVTKMRDYRPISINYRTHHHHHH",
    "ka": "3.8 1/M*s × 10^+6"
  }
]

Continue with the next molecule.
Per the record, 353F10 (protein) VSDVPRDLEVVAATPTSLLISWPTHYKVARYYRITYGETGGNSPVQEFTVPKHTYTATISGLKPGVDYTITVYAVTTTKGLRHYGPISINYRTHHHHHH has ka of 3.7 1/M*s × 10^+6
